- target.system: TRPL channels (Drosophila melanogaster, UniProt P48994)
- Sequence (P48994 1-1124): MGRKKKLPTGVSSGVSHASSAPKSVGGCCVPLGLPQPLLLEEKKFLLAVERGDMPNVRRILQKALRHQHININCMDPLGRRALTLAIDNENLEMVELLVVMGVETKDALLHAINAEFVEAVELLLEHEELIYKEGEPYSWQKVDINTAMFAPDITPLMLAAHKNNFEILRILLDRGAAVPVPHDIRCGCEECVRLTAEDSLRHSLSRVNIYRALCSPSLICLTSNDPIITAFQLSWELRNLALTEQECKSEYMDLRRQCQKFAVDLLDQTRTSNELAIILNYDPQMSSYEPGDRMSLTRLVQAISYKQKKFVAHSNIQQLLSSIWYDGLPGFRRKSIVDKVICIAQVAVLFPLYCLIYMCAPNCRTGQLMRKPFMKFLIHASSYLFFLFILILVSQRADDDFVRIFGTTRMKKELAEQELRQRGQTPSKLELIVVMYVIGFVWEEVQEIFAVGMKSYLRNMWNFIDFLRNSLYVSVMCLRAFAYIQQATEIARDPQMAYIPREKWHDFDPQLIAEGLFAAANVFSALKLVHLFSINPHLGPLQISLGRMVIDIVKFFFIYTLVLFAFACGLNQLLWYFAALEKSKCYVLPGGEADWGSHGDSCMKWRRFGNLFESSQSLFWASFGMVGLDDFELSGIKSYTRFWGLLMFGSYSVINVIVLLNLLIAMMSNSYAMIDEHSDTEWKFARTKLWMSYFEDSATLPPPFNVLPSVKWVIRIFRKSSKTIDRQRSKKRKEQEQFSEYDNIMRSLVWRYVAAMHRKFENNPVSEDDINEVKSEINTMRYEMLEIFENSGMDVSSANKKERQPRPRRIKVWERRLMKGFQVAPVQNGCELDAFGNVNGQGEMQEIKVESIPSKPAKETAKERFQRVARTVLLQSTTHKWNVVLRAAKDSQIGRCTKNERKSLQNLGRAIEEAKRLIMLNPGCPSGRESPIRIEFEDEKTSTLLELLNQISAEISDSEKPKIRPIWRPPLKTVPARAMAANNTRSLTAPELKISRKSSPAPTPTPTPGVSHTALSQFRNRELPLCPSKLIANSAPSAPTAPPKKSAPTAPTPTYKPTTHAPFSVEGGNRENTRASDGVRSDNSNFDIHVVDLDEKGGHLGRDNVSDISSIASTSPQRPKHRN
- assay.comment: Whole-cell patch clamp of TRPL channels expressed in S2 cells
- reported.conditions: read-out: IC50 of TRPL inhibition; S2 cells, whole-cell patch clamp
measured.parameter: IC50 (µM)
Please respond with the number in µM and leave the unit unwritten.

Problem: IC50 lookup needed for O=C/C=C/c1ccccc1 [Compound XII, trans-3-Phenyl-2-propenal] , thanks.
Result: 1600

###

- target.system: TRPL channels (Drosophila melanogaster)
- assay.comment: Whole-cell patch clamp of TRPL channels expressed in S2 cells
- reported.conditions: TRPL expressed in S2 cells
measured.parameter: TRPL Activation/Inhibition

Known results for molecules:
Cc1ccc(C(C)C)c(O)c1 ... Inhibition
O=C/C=C/c1ccccc1 [Compound XII, trans-3-Phenyl-2-propenal] ... Inhibition
Cc1ccc(C(C)C)cc1O ... Inhibition
CC(C)[C@@H]1CC[C@@H](C)C[C@H]1O ... Inhibition
CC12CCC(CC1=O)C2(C)C (stereo not drawn) ... Activation

Problem: TRPL Activation/Inhibition lookup needed for `C=CCc1ccc(O)c(OC)c1` , thanks.
Result: Inhibition

Problem: TRPL Activation/Inhibition lookup needed for CC1(C)C2CCC1(C)C(O)C2 (stereo not drawn) , thanks.
Result: Activation

Problem: TRPL Activation/Inhibition lookup needed for C=C(C)[C@@H]1CC=C(C)C(O)C1 (stereo partly drawn) , thanks.
Result: Inhibition
